test system: Human tumour cells (cell line panel); assay: Proliferation assay: cell line panel (crystal violet, 4 days); type: cell-based; settings: NCI-H82, lung cancer, small cell, 4000 cells/well, read-out: Result Category, IC50 (mean)
endpoint name: IC50

What IC50 value was documented for this compound, Brc1cnn2c(NCc3nc4ccccc4[nH]3)nc(N3CCOCC3)nc12 [Example 4] ? 30 to 100 nM

###

test system: Human tumour cells (cell line panel); experiment: Proliferation assay: cell line panel (crystal violet, 4 days); type: cell-based; settings: HUH-6clone5, liver cancer, 4000 cells/well, read-out: Result Category, IC50 (mean)
endpoint name: IC50

Data request, read-out IC50, for `Brc1cnn2c(NCc3nc4ccccc4[nH]3)nc(N3CCOCC3)nc12` ≥ 100 nM

###

target: CDK12 (nuclear staining in CAL-120 cells) (Homo sapiens, UniProt Q9NYV4); construct: endogenous in cells; host or cells: CAL-120 human breast cancer cells (DSMZ ACC 459); assay: CDK12 nuclear protein level: immunofluorescence/high content analysis (CAL-120); assay type: cell-based; settings: CAL-120 cells, 24 h, immunofluorescence; 50% reduction of nuclear CDK12 staining intensity; median; read-out: CDK12 degradation IF, DC50- [mol/l] (median)
Sequence (Q9NYV4 whole entry): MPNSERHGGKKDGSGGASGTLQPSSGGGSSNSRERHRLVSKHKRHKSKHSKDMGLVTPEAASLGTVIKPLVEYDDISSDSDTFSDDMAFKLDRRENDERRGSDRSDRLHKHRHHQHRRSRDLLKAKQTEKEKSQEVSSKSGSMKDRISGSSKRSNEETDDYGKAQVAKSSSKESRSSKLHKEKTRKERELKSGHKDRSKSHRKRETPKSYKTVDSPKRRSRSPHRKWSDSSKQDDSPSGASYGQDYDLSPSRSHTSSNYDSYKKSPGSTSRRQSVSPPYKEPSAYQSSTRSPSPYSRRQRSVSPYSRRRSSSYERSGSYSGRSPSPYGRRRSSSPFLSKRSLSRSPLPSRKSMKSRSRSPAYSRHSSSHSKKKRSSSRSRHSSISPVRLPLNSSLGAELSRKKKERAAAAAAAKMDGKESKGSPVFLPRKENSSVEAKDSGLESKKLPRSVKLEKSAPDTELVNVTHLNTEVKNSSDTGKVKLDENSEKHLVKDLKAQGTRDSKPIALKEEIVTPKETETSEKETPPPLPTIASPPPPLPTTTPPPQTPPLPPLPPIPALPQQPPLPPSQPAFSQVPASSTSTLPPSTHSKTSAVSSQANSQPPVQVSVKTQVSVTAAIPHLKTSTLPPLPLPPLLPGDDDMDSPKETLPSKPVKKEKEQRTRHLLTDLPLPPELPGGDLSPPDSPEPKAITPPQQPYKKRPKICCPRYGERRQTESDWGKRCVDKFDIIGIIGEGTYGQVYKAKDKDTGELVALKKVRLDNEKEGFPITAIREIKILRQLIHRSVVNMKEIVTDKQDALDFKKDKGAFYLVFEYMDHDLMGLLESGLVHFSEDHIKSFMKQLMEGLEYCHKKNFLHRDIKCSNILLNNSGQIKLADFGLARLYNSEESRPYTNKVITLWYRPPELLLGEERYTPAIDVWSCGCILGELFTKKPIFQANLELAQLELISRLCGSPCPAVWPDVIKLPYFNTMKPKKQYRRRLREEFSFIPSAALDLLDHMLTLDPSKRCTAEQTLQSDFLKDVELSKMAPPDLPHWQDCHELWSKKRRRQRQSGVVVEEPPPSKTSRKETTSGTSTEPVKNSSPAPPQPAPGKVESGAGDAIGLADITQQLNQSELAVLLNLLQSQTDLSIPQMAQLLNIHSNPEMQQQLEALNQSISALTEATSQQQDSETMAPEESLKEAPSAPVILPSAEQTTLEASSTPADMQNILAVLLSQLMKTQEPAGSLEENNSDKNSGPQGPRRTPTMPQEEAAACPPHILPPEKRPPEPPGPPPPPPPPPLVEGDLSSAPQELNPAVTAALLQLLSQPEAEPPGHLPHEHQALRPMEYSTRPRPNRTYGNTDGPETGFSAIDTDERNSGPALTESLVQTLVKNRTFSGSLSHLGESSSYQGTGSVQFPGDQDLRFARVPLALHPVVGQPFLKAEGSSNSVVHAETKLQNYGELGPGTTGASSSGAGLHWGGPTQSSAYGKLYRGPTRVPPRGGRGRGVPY
Sequence (O75909 whole entry partner): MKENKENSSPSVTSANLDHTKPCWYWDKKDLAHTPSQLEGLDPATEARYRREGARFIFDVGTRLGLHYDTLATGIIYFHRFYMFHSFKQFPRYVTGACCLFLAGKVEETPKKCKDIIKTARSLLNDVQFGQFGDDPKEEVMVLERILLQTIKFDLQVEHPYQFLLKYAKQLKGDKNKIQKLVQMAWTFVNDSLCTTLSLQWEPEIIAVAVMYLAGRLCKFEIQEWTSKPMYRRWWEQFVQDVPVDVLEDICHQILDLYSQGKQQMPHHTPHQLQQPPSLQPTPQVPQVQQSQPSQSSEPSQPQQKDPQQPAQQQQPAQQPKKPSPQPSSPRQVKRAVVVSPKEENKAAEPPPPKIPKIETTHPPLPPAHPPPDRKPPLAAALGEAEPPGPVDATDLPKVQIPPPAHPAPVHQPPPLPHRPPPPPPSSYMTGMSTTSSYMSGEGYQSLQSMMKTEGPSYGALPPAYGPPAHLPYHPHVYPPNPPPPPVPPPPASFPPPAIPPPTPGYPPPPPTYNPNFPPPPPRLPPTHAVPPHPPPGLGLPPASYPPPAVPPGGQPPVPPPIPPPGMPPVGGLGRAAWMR
Threshold 8 nM: DC50 strictly smaller gives yes (1), otherwise no (0).

Solved entries:
FC(F)(F)c1ccc2[nH]c(CNc3nc(N4CCOCC4)nc4c(C5CC5)cnn34)nc2c1	yes (1)
CC[C@@H](CO)Nc1nc(NCc2nc3ccccc3[nH]2)n2ncc(Br)c2n1	no (0)
Brc1cnn2c(NCc3nc4ccccc4[nH]3)nc(N3CCCC3)nc12	yes (1)
CC1CN(C)CCN1c1nc(NCc2nc3ccccc3[nH]2)n2ncc(Br)c2n1 (single isomer, unassigned; enantiomer 2) [Example 261]	no (0)
NCCc1ccc2[nH]c(CNc3nc(N4CCOCC4)nc4c(Br)cnn34)nc2c1.O=CO	no (0)

Confirm or reject: DC50 of `CN1CC[C@H]2CN(c3nc(NCc4nc5ccccc5[nH]4)n4ncc(Br)c4n3)C[C@H]21` lies strictly below 8 nM yes (1)

# check: DC50 < 8 nM for `CN1CCN(c2nc(NCc3nc4c(F)c(Cl)ccc4[nH]3)n3ncc(C4CC4)c3n2)CC1` yes (1)

###

molecular target: CDK12 (nuclear staining in CAL-120 cells) (Homo sapiens); construct: endogenous in cells; host or cells: CAL-120 human breast cancer cells (DSMZ ACC 459); assay: CDK12 nuclear protein level: immunofluorescence/high content analysis (CAL-120); format: cell-based; details: ratio of IC50 CDK12 high ATP kinase assay to DC50 CDK12 degradation (IF, CAL-120)
Binary classification by (IC50 CDK12 high ATP) to (Degradation DC50 CDK12) ratio, with 400 as an inclusive lower bound for rule met; all other cases are rule not met.

Completed entries (count: 2):
COc1cccc2[nH]c(CNc3nc(N4CCOCC4)nc4c(C5CC5)cnn34)nc12	rule met
CN(CCO)c1nc(NCc2nc3ccccc3[nH]2)n2ncc(Br)c2n1	rule not met

Lab note: next molecule to report on.
Quick check, (IC50 CDK12 high ATP) to (Degradation DC50 CDK12) ratio >= 400? `Brc1cnn2c(NCc3nc4ccccc4[nH]3)nc(N3CCN4CCC3CC4)nc12` rule met

###

Consider the following molecules and their measured (IC50 CDK12 high ATP) to (Degradation DC50 CDK12) ratio readings.
molecular target: CDK12 (nuclear staining in CAL-120 cells) (Homo sapiens, UniProt Q9NYV4); construct: endogenous in cells; host or cells: CAL-120 human breast cancer cells (DSMZ ACC 459); experiment: CDK12 nuclear protein level: immunofluorescence/high content analysis (CAL-120); assay type: cell-based; conditions: ratio of IC50 CDK12 high ATP kinase assay to DC50 CDK12 degradation (IF, CAL-120)
Lab note: write the figure by itself, no unit.

Clc1cnn2c(NCc3nc4ccccc4[nH]3)nc(N3CCOCC3)nc12 [Example 15]	1191

# get_value(readout='(IC50 CDK12 high ATP) to (Degradation DC50 CDK12) ratio', item= Brc1cnn2c(NCc3nc4ccccc4[nH]3)nc(N3C[C@@H]4CCCN[C@@H]4C3)nc12 [Example 146] ) 2320

Quick one: (IC50 CDK12 high ATP) to (Degradation DC50 CDK12) ratio of Brc1cnn2c(NCc3nc4ccccc4[nH]3)nc(N3C[C@H]4CC[C@@H]3CO4)nc12 (single isomer, unassigned) [Example 383] ? 859
